Recorded LC50, one value per entry.
system: Cat Flea (Ctenocephalides felis); assay: Continuous exposure of larvae to treated media, impact on subsequent adult emergence; format: in vivo; details: continuous exposure of larvae, adult emergence
Record the value in ppm, omitting the unit from your answer.

Answered cases to consult:
O=C(NC(=O)c1c(F)cccc1F)Nc1cc(Cl)c(OC(F)(F)C(F)C(F)(F)F)c(Cl)c1 (stereo not shown) :: 8.6
CCN(C(=O)NC(=O)c1c(F)cccc1F)c1cc(Cl)c(OC(F)(F)C(F)C(F)(F)F)c(Cl)c1 (stereo not shown) :: 78.0
CCN(C(=O)Nc1cc(Cl)c(OC(F)(F)C(F)C(F)(F)F)c(Cl)c1)C(=O)c1c(F)cccc1F (stereo not shown) :: 329.4

Attention now turns to another entry.
Per the reported Cat Flea (Ctenocephalides felis) data, O=C(NC(=O)c1c(F)cccc1F)Nc1cc(Cl)c(OC(F)(F)C(F)F)c(Cl)c1 [hexaflumuron, reference compound] has LC50 of 65.7

Value source: patent US5945453A
